biological target: T1, HLA-A*0201 (human); experiment: competitive inhibition of 125I-labeled probe peptide binding to purified HLA-A*0201
T1 construct: also called HLA-A2.1; A2.1
pIC50: −log10 of the molar value.
Parameter: pIC50

What value of pIC50 has been recorded for this entry: SLTEILKGGV [Her2/neu.144] ≥ 6.30
